Tested on: cancer cell lines (MCF-7, SKOV-3, B16F10, LOVO, and HeLa) and HaCaT
protocol: In vitro cytotoxicity assay, results summarised over the cell line panel
Type: cell-based
run_parameters: all tested cell lines
experimental_readout: Cytotoxicity in words

[[record]]
compound_structure_string = "COc1cc([C@@H]2c3cc4c(cc3C=C(c3nc5ccccc5s3)[C@@H]2CO)OCO4)cc(OC)c1OC"
endpoint_value = "no effect"

[[record]]
compound_structure_string = "COC(=O)c1c(-c2nc3ccccc3s2)cc2cc3c(cc2c1-c1cc(OC)c(OC)c(OC)c1)OCO3"
endpoint_value = "no effect"

